Molecular target: ERα (Homo sapiens, UniProt P03372)
Construct: host or cells: MCF7
Sequence (P03372 whole entry): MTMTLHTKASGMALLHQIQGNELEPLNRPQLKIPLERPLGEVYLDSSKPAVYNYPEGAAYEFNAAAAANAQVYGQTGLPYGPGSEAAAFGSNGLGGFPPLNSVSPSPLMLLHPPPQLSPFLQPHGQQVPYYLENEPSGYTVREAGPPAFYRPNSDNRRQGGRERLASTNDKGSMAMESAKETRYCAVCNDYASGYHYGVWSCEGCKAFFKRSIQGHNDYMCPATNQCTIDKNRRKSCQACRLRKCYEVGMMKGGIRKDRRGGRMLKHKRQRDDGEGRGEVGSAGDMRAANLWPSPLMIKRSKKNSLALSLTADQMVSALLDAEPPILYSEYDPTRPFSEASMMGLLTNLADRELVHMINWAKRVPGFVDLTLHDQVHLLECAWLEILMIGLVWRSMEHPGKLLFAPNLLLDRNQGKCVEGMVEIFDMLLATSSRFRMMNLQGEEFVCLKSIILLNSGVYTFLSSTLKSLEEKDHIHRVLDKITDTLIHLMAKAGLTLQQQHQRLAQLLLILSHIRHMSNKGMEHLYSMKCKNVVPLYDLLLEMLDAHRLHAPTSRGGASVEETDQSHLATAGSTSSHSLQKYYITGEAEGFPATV
Assay: Estrogen receptor degradation activity (breast cancer cell ERα in cell western assay)
Format: cell-based
Details: MCF7 cells, 0.3 μM, 4 hours, % of ERα levels decrease relative to fulvestrant
Method: Said test involves measuring the in vitro degradation activity of the compounds of the Table 1a. The measurements of the degradation activities were made using a breast cancer cell ERα in cell western assay as described hereunder. […] The % of ERα levels decrease were determined as follows: % inhibition=100*(1−(sample−fulvestrant: DMSO−fulvestrant)).
Response key: t means % Degradation At 0.3 μM >= 80%; f means % Degradation At 0.3 μM < 80%.

Past entries and their recorded results:
1) Cc1c(Cl)cccc1C1=C(c2ccc(CC3CCN(CCCF)C3)cc2)c2ccc(C(=O)O)cc2CCC1 (single isomer, unassigned; isomer 1) : t
2) Cl.O=C(O)c1ccc2c(c1)CCC(c1ccc(Cl)cc1Cl)=C2c1ccc(CC2CCN(CCCF)C2)cc1 (single isomer, unassigned; isomer 1) : t
3) CC1(C)CCC(C2=C(c3ccc(CC4CCN(CCCF)C4)cc3)c3ccc(C(=O)O)cc3CCC2)CC1.Cl (single isomer, unassigned; isomer 1) : t

# bool: % Degradation At 0.3 μM of Cl.Oc1ccc2c(c1)CCCC(c1ccc(Cl)cc1Cl)=C2c1ccc(CC2CCN(CCCF)C2)cc1 (single isomer, unassigned; isomer 1) >= 80%
f

Same question, Cc1cc(F)ccc1C1=C(c2ccc(CC3CCN(CCC(F)F)C3)cc2)c2ccc(C(=O)O)cc2CCC1.Cl (single isomer, unassigned; isomer 1) this time
t

Same question, O=C(O)c1ccc2c(c1)CCCC(c1ccc(F)cc1F)=C2c1ccc(CC2CCN(CCC(F)F)C2)cc1 (single isomer, unassigned; isomer 1) this time
t

Same question, Oc1ccc2c(c1)SCCC(c1ccccc1Cl)=C2c1ccc(CC2CCN(CCCF)C2)cc1 (single isomer, unassigned; isomer 1) this time
f

Same question, Cl.O=C(O)c1ccc2c(c1)CCCC(c1ccc(C(F)(F)F)cc1)=C2c1ccc(CC2CCN(CCCF)C2)cc1 (single isomer, unassigned; isomer 1) this time
t
